Measured yeast fitness (ln) accompanies every entry in the list below.
B1: tRNA (parent)
chain: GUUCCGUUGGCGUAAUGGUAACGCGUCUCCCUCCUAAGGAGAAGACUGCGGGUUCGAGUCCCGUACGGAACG

- Variants of: B1
- Protocol Text: yeast fitness, log relative to wild type (ln ratio); higher = fitter; tRNA-Arg(CCU), competitive growth, 37 C, 1 M NaCl
Measure: yeast fitness (ln)

INSERT INTO results (mutant_name, measure, recorded_value) VALUES
  ('U2G G6U C27U A43C C46U', 'yeast fitness (ln)', -0.127),
  ('U2G G6U C27U C46U C66A A70U', 'yeast fitness (ln)', -0.0141),
  ('U2C G6A C66A A70G', 'yeast fitness (ln)', -0.0699),
  ('A43C C46U A69G A70U C71U', 'yeast fitness (ln)', -0.273),
  ('G1A G6A C27U A69G A70G C71U', 'yeast fitness (ln)', -0.344),
  ('G1A U2G G6U A43C A70U', 'yeast fitness (ln)', -0.257),
  ('G1A U2G A43C C66U A70G', 'yeast fitness (ln)', -0.214),
  ('G1A C27U C46U A69G A70G C71U', 'yeast fitness (ln)', -0.16),
  ('U2C G6U C46U C66A A70G C71U', 'yeast fitness (ln)', -0.0101),
  ('G1A U2G G6A C27U C66A A70U C71U', 'yeast fitness (ln)', -0.457),
  ('U2G G6A A43C C46U A69G A70U', 'yeast fitness (ln)', -0.123),
  ('U2C G6A A43C A70G C71U', 'yeast fitness (ln)', -0.129),
  ('A43C A70G C71U', 'yeast fitness (ln)', -0.164),
  ('G1A U2G G6U C27U C71U', 'yeast fitness (ln)', -0.358),
  ('G1A U2G C27U C46U A69G C71U', 'yeast fitness (ln)', -0.206),
  ('U2C G6U C27U A43C C66U', 'yeast fitness (ln)', -0.0999),
  ('U2G G6U C27U A43C C46U C66A A69G A70G C71U', 'yeast fitness (ln)', -0.279),
  ('G1A C27U C46U C66A A70G C71U', 'yeast fitness (ln)', -0.187),
  ('U2C G6A C27U A43C A70U C71U', 'yeast fitness (ln)', -0.243),
  ('U2C G6U C27U C46U C66U A70U', 'yeast fitness (ln)', -0.132),
  ('U2C C27U A43C', 'yeast fitness (ln)', -0.0586),
  ('G1A U2G A43C C66U A69G A70U C71U', 'yeast fitness (ln)', -0.472),
  ('G1A U2C A43C C46U A69G A70G C71U', 'yeast fitness (ln)', -0.00408),
  ('U2C G6A A43C', 'yeast fitness (ln)', -0.0449),
  ('U2C G6U C66A A70G C71U', 'yeast fitness (ln)', -0.0156),
  ('U2C A43C C66A A70G', 'yeast fitness (ln)', -0.0552),
  ('G1A C66U A69G A70G', 'yeast fitness (ln)', -0.176),
  ('G1A G6U C27U C46U C66U', 'yeast fitness (ln)', -0.313),
  ('C27U A43C C66U A70G C71U', 'yeast fitness (ln)', -0.211),
  ('G1A U2G G6U C27U C66U A70G', 'yeast fitness (ln)', -0.357),
  ('U2C G6U C27U A69G A70G', 'yeast fitness (ln)', -0.191),
  ('A43C C46U C66A A69G A70G', 'yeast fitness (ln)', -0.0183),
  ('A43C A70G', 'yeast fitness (ln)', -0.022),
  ('C66A A69G', 'yeast fitness (ln)', -0.0295),
  ('U2C C27U A43C C66U', 'yeast fitness (ln)', -0.15),
  ('U2G C66U A69G A70U', 'yeast fitness (ln)', -0.285),
  ('G1A C27U C66U A69G A70G', 'yeast fitness (ln)', -0.211),
  ('U2C A43C C66U A69G A70G C71U', 'yeast fitness (ln)', -0.23),
  ('U2C G6U C46U C66A A70U', 'yeast fitness (ln)', 0.000469),
  ('G1A U2G G6U A70U C71U', 'yeast fitness (ln)', -0.22),
  ('G6U A43C C46U C66A A69G', 'yeast fitness (ln)', 0.0709),
  ('G6U C27U A43C C46U A70G', 'yeast fitness (ln)', -0.248),
  ('G1A G6U C27U C66A A69G A70G C71U', 'yeast fitness (ln)', -0.31),
  ('U2G G6A C27U C66U', 'yeast fitness (ln)', -0.0928),
  ('U2G G6A C27U C46U C71U', 'yeast fitness (ln)', -0.128),
  ('G1A U2C G6U C46U C66A A69G A70G C71U', 'yeast fitness (ln)', -0.0207),
  ('U2G G6A C27U A43C C46U A69G A70G', 'yeast fitness (ln)', -0.183),
  ('G1A U2G G6U C27U C46U C71U', 'yeast fitness (ln)', -0.259),
  ('U2G G6U C27U C66U A69G A70U C71U', 'yeast fitness (ln)', -0.439),
  ('G1A U2C C27U A43C C46U A69G A70G C71U', 'yeast fitness (ln)', -0.0168),
  ('U2C G6A A43C C46U C66U A69G A70U', 'yeast fitness (ln)', -0.3),
  ('G1A U2C C27U C46U A70U C71U', 'yeast fitness (ln)', -0.155),
  ('U2G G6A A70G', 'yeast fitness (ln)', -0.114),
  ('U2G G6A C27U C46U C66A A69G A70U', 'yeast fitness (ln)', -0.134),
  ('U2C G6U C27U C66A A70U C71U', 'yeast fitness (ln)', -0.26),
  ('G6U C46U C71U', 'yeast fitness (ln)', -0.413),
  ('G1A U2C G6A C27U A43C C66U A70G', 'yeast fitness (ln)', -0.3),
  ('U2C A43C', 'yeast fitness (ln)', -0.0265),
  ('U2G C27U C46U A69G A70U C71U', 'yeast fitness (ln)', -0.563),
  ('G1A U2G C27U A43C C66U A69G A70G', 'yeast fitness (ln)', -0.492),
  ('U2C C27U A43C C66U A70G C71U', 'yeast fitness (ln)', -0.207),
  ('G1A U2G A43C C46U', 'yeast fitness (ln)', -0.042),
  ('U2G G6U C27U A43C C66U A69G A70U C71U', 'yeast fitness (ln)', -0.411),
  ('G1A U2G C27U C46U C66U C71U', 'yeast fitness (ln)', -0.21),
  ('U2G G6A C27U C66A A70G C71U', 'yeast fitness (ln)', -0.149),
  ('G6U C27U A43C C46U C66A A70G C71U', 'yeast fitness (ln)', -0.211),
  ('G1A U2G G6U A43C C46U C66A A69G A70G C71U', 'yeast fitness (ln)', -0.378),
  ('G1A U2C G6U C27U A43C C46U A69G A70G C71U', 'yeast fitness (ln)', -0.267),
  ('G1A U2C C27U A43C C46U C66A A70G C71U', 'yeast fitness (ln)', -0.16),
  ('G1A U2C G6U A43C A70U', 'yeast fitness (ln)', -0.153),
  ('G6U A43C C46U C66U A69G A70U C71U', 'yeast fitness (ln)', -0.42),
  ('C27U A43C C66U A69G A70U', 'yeast fitness (ln)', -0.361),
  ('U2C G6U C27U A43C C46U C66A A69G A70U', 'yeast fitness (ln)', -0.101),
  ('G1A G6A A43C C46U C66U A70G', 'yeast fitness (ln)', -0.194),
  ('U2G G6U A43C A70U C71U', 'yeast fitness (ln)', -0.215),
  ('G6A C27U A43C', 'yeast fitness (ln)', -0.131),
  ('G1A C27U A43C C46U A70U C71U', 'yeast fitness (ln)', -0.29),
  ('G1A U2G G6U C27U A43C C46U A69G A70U', 'yeast fitness (ln)', -0.463),
  ('U2C G6U A43C C66U A70U C71U', 'yeast fitness (ln)', -0.531),
  ('U2G G6A C27U C66U A69G A70U C71U', 'yeast fitness (ln)', -0.4),
  ('U2C G6A C27U A43C A70G', 'yeast fitness (ln)', -0.153),
  ('U2C G6U A43C C46U C66A A69G A70G C71U', 'yeast fitness (ln)', -0.00753),
  ('U2G G6A C27U A43C C66U A69G A70G C71U', 'yeast fitness (ln)', -0.386),
  ('U2G G6A A43C A70G', 'yeast fitness (ln)', -0.0939),
  ('G1A U2G G6A C66A A70U', 'yeast fitness (ln)', -0.0697),
  ('U2G G6A C27U C46U C66A C71U', 'yeast fitness (ln)', -0.213),
  ('U2G G6A C66A', 'yeast fitness (ln)', -0.111),
  ('G6U C66A A70G C71U', 'yeast fitness (ln)', -0.233),
  ('G1A U2G G6A A43C C46U A69G A70G C71U', 'yeast fitness (ln)', -0.303),
  ('U2C G6A A43C C46U C66U', 'yeast fitness (ln)', -0.0992),
  ('U2C G6A C27U A69G A70G', 'yeast fitness (ln)', -0.252);
